test: Inhibition of FTase
MEASURED_PROPERTY: pIC50
Reply briefly: the number, and no unit.

Task: GET /values?readout=pIC50&item= N#Cc1ccc(Cn2cncc2COCc2ccc(C#N)c(-c3cccc4ccccc34)c2)cc1
Result: 8.32

Task: GET /values?readout=pIC50&item= N#Cc1ccc(Cn2cncc2Cn2ccc3c(C#N)c(-c4cccc5ccccc45)ccc32)cc1
Result: 9.82

Task: GET /values?readout=pIC50&item= N#Cc1ccc(OCc2cncn2Cc2ccc(C#N)c(-c3cccc4ccccc34)c2)cc1
Result: 9.49

Task: GET /values?readout=pIC50&item= N#Cc1ccc(Cn2cncc2CNCc2ccc(C#N)c(-c3cccc4ccccc34)c2)cc1
Result: 8.19
